tested on: MYB mRNA; assay: RT-qPCR splicing assay, MYB mRNA canonical (CJ) and alternative (AJ) junction; assay type: cell-based, human; details: Homo sapiens, MYB canonical junction mRNA, RT-qPCR; read-out: MYB CJ (decrease in CJ mRNA levels, IC50)
Give measured IC50 for each item. Keep answers brief.

Inquiry: Which IC50 value is on record for CNC(=O)c1nc(-c2cc3cn(C)nc3c(C)c2O)nc2ccc(N3CCNCC3)nc12 [Compound 533] ?
Reply text: 100 to 1000 nM

Inquiry: For Cn1cc2cc(-c3ccc4nc(N5CC[C@H](NCC6CC6)C5)ccc4n3)c(O)c(F)c2n1 (single isomer, unassigned) [Compound 304] then?
Reply text: < 100 nM

Inquiry: Record: CNC(=O)c1nc(-c2cc3cn(C)nc3c(C)c2O)nc2ccc(N3C[C@@H](C)N[C@@H](C)C3)cc12 [Compound 511]
Reply text: < 100 nM
